# tested.target: SENP1 (Homo sapiens)
# Sequence (Q9P0U3 419-644): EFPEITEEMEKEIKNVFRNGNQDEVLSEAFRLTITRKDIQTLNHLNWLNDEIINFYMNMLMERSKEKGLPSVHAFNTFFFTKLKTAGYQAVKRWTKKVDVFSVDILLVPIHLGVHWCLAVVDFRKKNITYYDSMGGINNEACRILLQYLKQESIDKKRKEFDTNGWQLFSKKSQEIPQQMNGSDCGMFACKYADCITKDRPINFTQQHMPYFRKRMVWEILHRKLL
# procedure.details: High-throughput screening, single dose 1.25 µM
# Assay type: biochemical
# condition.set: crude in-plate synthesized compound, 1.25 µM assuming full conversion
recorded.metric: %inhibition SENP1 (%)

| molecule | tested.target | value.units | %inhibition SENP1 |
| --- | --- | --- | --- |
| N#CN1CC[C@@H](NC(=O)c2nc(N3CCCC3)ncc2Cl)C1 [BB01CA90] | SENP1 (Homo sapiens) | % | 16.6 |
| N#CN1CC[C@@H](NC(=O)Cc2csc(-c3cnccn3)n2)C1 [BB01CA92] | SENP1 (Homo sapiens) | % | 12.8 |
| N#CN1CC[C@@H](NC(=O)CCN(Cc2ccccc2)S(=O)(=O)c2c(Cl)cccc2Cl)C1 [BB01CA93] | SENP1 (Homo sapiens) | % | 8.6 |

a = N#CN1CC[C@@H](NC(=O)c2ncoc2-c2cccs2)C1 [BB01CA94]
b = N#CN1CC[C@@H](NC(=O)C(Cc2c[nH]cn2)NS(=O)(=O)c2ccc(Cl)cc2)C1 (some centres unmarked) [BB01CA91]
Prompt: // task: argmin of %inhibition SENP1 over [ a , b ] Pick one; state its label.
Response: a
(a: 8.5%, b: 13.2%)
